systemName: murine macrophage iNOS (Mus musculus, UniProt P29477)
assay: NO hemoglobin capture assay, murine iNOS
Assay type: biochemical
conditionNotes: pH 7.4
quantityKind: Ki

### Prompt Give reported Ki value for Cc1cc(N)nc(CCc2cc(CCCN(C)C)cc(F)c2F)c1
### Response 823 nM

---

systemName: human nNOS (Homo sapiens, UniProt P29475)
Sequence (P29475 whole entry): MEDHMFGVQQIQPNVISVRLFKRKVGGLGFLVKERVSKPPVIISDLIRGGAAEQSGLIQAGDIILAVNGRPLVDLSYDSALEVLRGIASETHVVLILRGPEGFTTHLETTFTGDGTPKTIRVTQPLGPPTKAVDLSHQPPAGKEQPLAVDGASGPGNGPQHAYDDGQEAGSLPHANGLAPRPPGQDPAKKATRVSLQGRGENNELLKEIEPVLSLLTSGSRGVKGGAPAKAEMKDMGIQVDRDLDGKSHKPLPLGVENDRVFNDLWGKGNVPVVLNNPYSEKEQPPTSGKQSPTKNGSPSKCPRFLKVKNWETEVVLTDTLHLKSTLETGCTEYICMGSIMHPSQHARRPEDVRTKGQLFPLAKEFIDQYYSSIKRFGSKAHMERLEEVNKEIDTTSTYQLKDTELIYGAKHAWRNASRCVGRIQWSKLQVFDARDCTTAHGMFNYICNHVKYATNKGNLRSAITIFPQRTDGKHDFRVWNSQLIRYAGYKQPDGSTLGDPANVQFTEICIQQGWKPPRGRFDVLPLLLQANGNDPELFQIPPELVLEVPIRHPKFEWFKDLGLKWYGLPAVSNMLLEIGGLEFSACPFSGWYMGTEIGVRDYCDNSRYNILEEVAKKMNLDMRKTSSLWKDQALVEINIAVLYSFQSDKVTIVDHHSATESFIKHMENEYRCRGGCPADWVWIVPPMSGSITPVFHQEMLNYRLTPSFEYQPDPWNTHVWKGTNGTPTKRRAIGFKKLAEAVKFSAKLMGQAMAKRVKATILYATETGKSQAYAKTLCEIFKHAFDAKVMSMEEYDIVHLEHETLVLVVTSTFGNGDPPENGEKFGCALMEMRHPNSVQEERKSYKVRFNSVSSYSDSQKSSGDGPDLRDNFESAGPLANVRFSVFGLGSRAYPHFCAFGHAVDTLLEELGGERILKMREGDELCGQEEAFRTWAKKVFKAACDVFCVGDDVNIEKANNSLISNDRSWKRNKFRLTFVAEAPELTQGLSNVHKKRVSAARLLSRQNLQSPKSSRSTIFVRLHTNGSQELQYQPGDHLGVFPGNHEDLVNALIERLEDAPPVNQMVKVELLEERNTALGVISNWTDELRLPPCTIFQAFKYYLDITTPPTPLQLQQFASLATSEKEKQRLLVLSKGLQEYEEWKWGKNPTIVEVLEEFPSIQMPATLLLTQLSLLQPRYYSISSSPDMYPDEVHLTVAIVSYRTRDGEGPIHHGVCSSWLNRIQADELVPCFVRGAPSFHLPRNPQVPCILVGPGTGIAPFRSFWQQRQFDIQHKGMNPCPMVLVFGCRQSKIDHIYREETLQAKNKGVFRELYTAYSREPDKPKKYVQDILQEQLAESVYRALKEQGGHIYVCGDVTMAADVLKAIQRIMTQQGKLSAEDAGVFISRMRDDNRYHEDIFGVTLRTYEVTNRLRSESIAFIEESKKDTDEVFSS
assay: NO hemoglobin capture assay, human nNOS
Type: biochemical
conditionNotes: Table 5; Ki from IC50 by Cheng-Prusoff, 8 to 11 concentrations; read-out: Ki HnNOS
Counter-ions that a name gives are not always drawn.
quantityKind: log10 Ki (log10 of the value in nM)
# log10 transformed; quantity=Ki; unit=nM

Cc1cc(N)nc(CCCN2CCN(C)CC2)c1 = 2.23
CNCC#Cc1cc(C)cc(N)n1 [Compound 71, hydrochloride] = 1.96
Cc1cc(N)nc(C#CCN2CCN(C)CC2)c1 = 3.33
Cc1cc(N)nc(CCCN(C)C)c1 [Compound 69, hydrochloride] = 1.46

Turning to the following compound.
### Prompt Give me measured log10 Ki, please, for this compound: CNCCCc1cc(C)cc(N)n1 [Compound 70, hydrochloride]
### Response 1.32
